- Test Details: Solubility test for several solid acid addition salts
- Type: physicochemical
- Experimental Setup: read-out: Solubility
Endpoint Name: Solubility (µg/mL)

>>> value_observed("COC(=O)C(c1ccccc1Cl)N1CCc2sc(OC(=O)c3ccccc3OC(C)=O)cc2C1 (stereo not shown) [Benzenesulfonate]")
2500

* * *

- Test Details: Solubility test for several solid acid addition salts
- Format: physicochemical
Structures can show the parent of a compound that is named as a salt.
Below, each of the molecules is paired with its reported Solubility value.
Endpoint Name: Solubility (µg/mL)

>>> value_observed("COC(=O)C(c1ccccc1Cl)N1CCc2sc(OC(=O)c3ccccc3OC(C)=O)cc2C1 (centres unmarked) [Hydrochloride]")
20
>>> value_observed("COC(=O)C(c1ccccc1Cl)N1CCc2sc(OC(=O)c3ccccc3OC(C)=O)cc2C1 (centres unmarked) [Hydrobromide]")
500
>>> value_observed("COC(=O)C(c1ccccc1Cl)N1CCc2sc(OC(=O)c3ccccc3OC(C)=O)cc2C1 [L-camphor sulfonate]")
4700
>>> value_observed("COC(=O)C(c1ccccc1Cl)N1CCc2sc(OC(=O)c3ccccc3OC(C)=O)cc2C1 (centres unmarked) [P-toluenesulfonate]")
1200
>>> value_observed("COC(=O)C(c1ccccc1Cl)N1CCc2sc(OC(=O)c3ccccc3OC(C)=O)cc2C1 (centres unmarked) [Methanesulfonate]")
8200
